biological target: Human GLP-1 receptor (Homo sapiens, UniProt P43220); construct: The full-length cDNA was cloned in pcDNA3.1(+); expressed in transfected cells; assay: In vitro Human GLP-1 R agonist activity (cyclic AMP determination) in CHO/human GLP1R cells; format: cell-based; settings: 10 μM test compound
Sequence (P43220 24-463): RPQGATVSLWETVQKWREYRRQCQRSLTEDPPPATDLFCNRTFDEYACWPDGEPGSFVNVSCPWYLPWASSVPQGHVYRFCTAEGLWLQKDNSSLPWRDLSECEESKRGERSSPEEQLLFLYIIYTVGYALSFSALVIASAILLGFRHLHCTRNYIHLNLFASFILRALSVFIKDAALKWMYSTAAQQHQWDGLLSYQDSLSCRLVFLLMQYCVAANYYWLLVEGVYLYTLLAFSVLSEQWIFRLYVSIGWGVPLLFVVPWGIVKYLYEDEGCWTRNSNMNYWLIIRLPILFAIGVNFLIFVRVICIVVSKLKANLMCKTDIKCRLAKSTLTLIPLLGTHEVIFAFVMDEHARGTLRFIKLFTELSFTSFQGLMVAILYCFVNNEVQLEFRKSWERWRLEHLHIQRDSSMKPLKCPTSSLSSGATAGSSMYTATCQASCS
// values below are reported Human GLP-1 R activity (cAMP release), % activity with respect to control
Please reply with the bare figure in % and do not write the unit itself.

molecule	measurement_target	unit_abbreviation	reported_result
CCc1cc(OC)ccc1-c1ccc(CC(NC(=O)[C@H](CC(=O)O)NC(=O)[C@H](CO)NC(=O)[C@@H](NC(=O)C(C)(Cc2ccccc2F)NC(=O)[C@@H](NC(=O)CNC(=O)C(CCC#N)NC(=O)C(C)(C)NC(=O)[C@@H](N)Cc2c[nH]cn2)[C@H](C)O)[C@H](C)O)C(=O)NC(CCCc2ccccc2)C(N)=O)cc1 (single isomer, unassigned)	Human GLP-1 receptor (Homo sapiens, UniProt P43220)	%	99
CCc1cc(OC)ccc1-c1ccc(CC(NC(=O)[C@H](CC(=O)O)NC(=O)[C@H](CO)NC(=O)[C@@H](NC(=O)[C@H](Cc2ccccc2)NC(=O)[C@@H](NC(=O)CNC(=O)C(CCC#N)NC(=O)C(C)(C)NC(=O)[C@@H](N)Cc2c[nH]cn2)[C@@H](C)O)[C@@H](C)O)C(=O)NC(CCCc2ccc(OC)cc2Cl)C(N)=O)cc1 (single isomer, unassigned)	Human GLP-1 receptor (Homo sapiens, UniProt P43220)	%	97

Query :: Field: Human GLP-1 R activity (cAMP release), % activity with respect to control (Human GLP-1 receptor (Homo sapiens, UniProt P43220)). Entry: CCc1cc(OC)ccc1-c1ccc(CC(C(=O)N(C)C(CCCc2ccccc2F)C(N)=O)N(C)C(=O)[C@H](CC(=O)O)NC(=O)[C@H](CO)NC(=O)[C@@H](NC(=O)C(C)(Cc2ccccc2F)NC(=O)[C@@H](NC(=O)CNC(=O)C(CCC#N)NC(=O)C(C)(C)NC(=O)[C@@H](N)Cc2c[nH]cn2)[C@H](C)O)[C@H](C)O)cc1 (single isomer, unassigned)
Result :: 99

###

// values below are reported % degradation of peptidomimetics in 24 h when incubated with simulated gastric fluid
assay: Stability in simulated gastric fluid; format: in vitro ADME; details: 2 μM peptidomimetic, simulated gastric fluid pH 1.5, 37° C., 24 h
Starred links: 1 amine or outer side, 2 acyl side, 3 side chain; linkers in the order of their positions; H or OH if unused. Non-standard residues stand in square brackets, D forms with d. Residues, ends and D or L forms follow the SMILES beside them. ξ: configuration not given here. *: point of attachment. X3 = CCc1cc(OC)ccc1-c1ccc(CC(N*)C(=S)NC(CCCc2ccccc2)C(N)=O)cc1; Leu(5,5,5,5',5',5'-F6) = N[C@@H](CC(C(F)(F)F)C(F)(F)F)C(=O)O; ξBip(2'-Et-4'-OMe) = CCc1cc(OC)ccc1-c1ccc(CC(N)C(=O)O)cc1; ξαMePhe(2-F) = CC(N)(Cc1ccccc1F)C(=O)O; X2 = O=C(C(CCCc1ccccc1Cl)N[*:1])[*:2]; aThr = C[C@H](O)[C@H](N)C(=O)O; Ac3c = NC1(C(=O)O)CC1; Aib = CC(C)(N)C(=O)O
Please reply with the bare figure in % and do not write the unit itself.

// worked examples, % degradation of peptidomimetics in 24 h when incubated with simulated gastric fluid included
compound	reported_result
CCc1cc(OC)ccc1-c1ccc(CC(NC(=O)[C@H](CC(=O)O)NC(=O)[C@H](CO)NC(=O)[C@@H](NC(=O)C(C)(Cc2ccccc2F)NC(=O)[C@@H](NC(=O)CNC(=O)C(CCC#N)NC(=O)C(C)(C)NC(=O)[C@H](Cc2c[nH]cn2)NC(=O)OC)[C@@H](C)O)[C@@H](C)O)C(=O)NC(CCCc2ccccc2)C(N)=O)cc1 (single isomer, unassigned)	00
CCc1cc(OC)ccc1-c1ccc(CC(NC(=O)[C@H](CC(=O)O)NC(=O)[C@H](CO)NC(=O)[C@@H](NC(=O)[C@H](Cc2ccccc2)NC(=O)[C@@H](NC(=O)CNC(=O)[C@H](CCC(N)=O)NC(=O)C2(NC(=O)[C@@H](N)Cc3c[nH]cn3)CC2)[C@@H](C)O)[C@@H](C)O)C(=O)NC(CCCc2ccccc2Cl)C(N)=O)cc1 (stereo partly drawn) [compound 74] (H-H[Ac3c]QGTFTSD[ξBip(2'-Et-4'-OMe)][X2]-NH2)	100

// switching to the query compound
Query :: What measured % degradation of peptidomimetics in 24 h when incubated with simulated gastric fluid goes with CCc1cc(OC)ccc1-c1ccc(CC(NC(=O)[C@H](CC(=O)O)NC(=O)[C@H](CO)NC(=O)[C@@H](NC(=O)C(C)(Cc2ccccc2F)NC(=O)[C@@H](NC(=O)CNC(=O)[C@H](CC(C(F)(F)F)C(F)(F)F)NC(=O)C(C)(C)NC(=O)[C@@H](N)Cc2c[nH]cn2)[C@H](C)O)[C@H](C)O)C(=S)NC(CCCc2ccccc2)C(N)=O)cc1 (stereo partly drawn) [compound 219] (H-H[Aib][Leu(5,5,5,5',5',5'-F6)]G[aThr][ξαMePhe(2-F)][aThr]SD-X3) ?
Result :: 00

Value source: patent US8883963B2
